# Test system: antigen-induced bronchospasm in guinea pig
# Experiment: Inhibitory effect on antigen-induced bronchospasm (Konzett-Roessler, ovalbumin-sensitized)
# Format: in vivo, guinea pig (Hartley male)
# Test Parameters: Cavia porcellus; intravenous, 10 minutes before antigen (0.2 mg/kg OA i.v.); read-out: Action for suppressing antigen-induced bronchospasms ED50
Reported log10 ED50 values for a set of compounds
Friendly reminder: values = log10 of ED50, unit mg/kg.

CCN1CCC(c2ccc(OC)c(OC3Cc4ccccc4C3)c2)OC1=O (stereo not drawn) : 0.43
COc1ccc(C2(C)CCN(C)C(=O)O2)cc1OC1CCCC1 (stereo not drawn) : -0.54
COc1ccc(C2CCN(C)C(=O)O2)cc1OCC1(c2ccccc2)CC1 (stereo not drawn) : 1.20
COc1ccc(C2CCN(Cc3ccccn3)C(=O)O2)cc1OC1CCCC1 (stereo not drawn) : 0.32

Requested read-out: log10 ED50. Entry: COc1ccc(C2CCNC(=O)O2)cc1OCC1CC1 (stereo not drawn)
-0.64

Form field: reported log10 ED50 of COc1ccc(C2CCN(C)C(=O)O2)cc1OCC1CC1 (stereo not drawn)
0.49

Quick one: log10 ED50 of COc1ccc(C2(C)CCNC(=O)O2)cc1OCCc1ccccc1 (stereo not drawn) ?
1.06

Fill in the blank: the reported log10 ED50 of COc1ccc(C2CCN(Cc3cccnc3)C(=O)O2)cc1OC1CCCC1 (stereo not drawn) is ____.
0.93

Given the entry COc1ccc(C2CCNC(=O)O2)cc1OCC1(c2ccccc2)CC1 (stereo not drawn) , report its measured log10 ED50.
0.24

Attribution: patent US6251897A
